# EXPERIMENTAL SYSTEM: human EGFR exon 20 insertion ASV (V769_D770insASV) (Homo sapiens, UniProt P00533, INS769ASV)
# Sequence (P00533 with tags, fused parts or gaps INS769ASV): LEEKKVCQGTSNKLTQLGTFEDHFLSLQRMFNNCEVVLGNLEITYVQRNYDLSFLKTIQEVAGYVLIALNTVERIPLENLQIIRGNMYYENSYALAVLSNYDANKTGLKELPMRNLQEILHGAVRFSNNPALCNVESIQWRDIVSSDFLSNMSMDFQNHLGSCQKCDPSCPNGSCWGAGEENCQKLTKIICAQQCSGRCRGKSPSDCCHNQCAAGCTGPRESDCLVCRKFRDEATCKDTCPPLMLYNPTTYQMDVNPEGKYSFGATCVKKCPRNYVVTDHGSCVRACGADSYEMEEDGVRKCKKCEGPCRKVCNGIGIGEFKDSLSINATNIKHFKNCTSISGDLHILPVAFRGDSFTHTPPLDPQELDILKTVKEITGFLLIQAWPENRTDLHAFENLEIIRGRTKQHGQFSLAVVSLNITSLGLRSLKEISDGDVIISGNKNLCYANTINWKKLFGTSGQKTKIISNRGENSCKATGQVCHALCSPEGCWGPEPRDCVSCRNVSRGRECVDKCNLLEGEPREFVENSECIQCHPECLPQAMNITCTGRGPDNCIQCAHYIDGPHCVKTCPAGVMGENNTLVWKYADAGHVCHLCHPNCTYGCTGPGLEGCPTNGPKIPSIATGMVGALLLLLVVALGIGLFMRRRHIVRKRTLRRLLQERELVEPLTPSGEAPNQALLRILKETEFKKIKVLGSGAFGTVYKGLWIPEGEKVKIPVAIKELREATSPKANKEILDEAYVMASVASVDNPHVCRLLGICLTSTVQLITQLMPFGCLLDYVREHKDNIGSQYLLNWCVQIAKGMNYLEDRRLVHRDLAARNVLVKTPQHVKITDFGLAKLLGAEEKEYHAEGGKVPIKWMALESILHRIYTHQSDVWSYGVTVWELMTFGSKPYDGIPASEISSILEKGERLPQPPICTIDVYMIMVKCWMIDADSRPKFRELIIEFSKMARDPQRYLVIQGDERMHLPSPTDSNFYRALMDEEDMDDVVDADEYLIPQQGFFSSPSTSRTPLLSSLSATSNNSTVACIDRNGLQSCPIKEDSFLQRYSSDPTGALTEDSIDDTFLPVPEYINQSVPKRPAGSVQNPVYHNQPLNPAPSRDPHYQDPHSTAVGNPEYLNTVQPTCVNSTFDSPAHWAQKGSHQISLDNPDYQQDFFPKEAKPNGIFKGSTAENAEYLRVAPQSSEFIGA
# TEST: Ba/F3-EGFR-Exon20-ASV cell anti-proliferative assay (CellTiter 96 MTS, 72 h)
# CONDITION SUMMARY: Ba/F3-EGFR-Exon20-ASV cells
pIC50: −log10 of the molar value.
PROPERTY LABEL: pIC50

Query: Consider the compound shown here: C=CC(=O)Nc1cc(Nc2ncc(C#N)c(-c3cn4c5c(cccc35)CCC4)n2)c(OC)cc1N1CC[C@@H](N(C)C)C1 What is its recorded pIC50?
Response: > 7.00

Query: pIC50 lookup needed for C=CC(=O)Nc1cc(Nc2ncc(N(C)S(C)(=O)=O)c(-c3cn4c5c(cccc35)CCC4)n2)c(OC)cc1N(C)CCN(C)C , thanks.
Response: < 6.00

Query: Fill in: pIC50 of C=CC(=O)Nc1cc(Nc2ncc(CCC(C)(C)O)c(-c3cn4c5c(cccc35)CCC4)n2)c(OC)cc1N(C)CCN(C)C is ___
Response: > 7.00

Recorded values, source patent US20170166598A1.
